target: TYK2 (Homo sapiens, UniProt P29597); assay: HEK-Blue IL-23 reporter assay (SEAP) for TYK2 pseudokinase inhibition; format: cell-based; set-up: HEK-Blue™ IL-23 and IFNα/β cells with a stably-integrated cytokine receptor and STAT3 or STAT1; host or cells: HEK-Blue IL-23 / HEK-Blue IFNα/β cells (HEK293 background); conditions: HEK-Blue IL-23 cells, 10 ng/mL human recombinant IL-23, SEAP reporter; read-out: IL23 IC50
Sequence (P29597 whole entry): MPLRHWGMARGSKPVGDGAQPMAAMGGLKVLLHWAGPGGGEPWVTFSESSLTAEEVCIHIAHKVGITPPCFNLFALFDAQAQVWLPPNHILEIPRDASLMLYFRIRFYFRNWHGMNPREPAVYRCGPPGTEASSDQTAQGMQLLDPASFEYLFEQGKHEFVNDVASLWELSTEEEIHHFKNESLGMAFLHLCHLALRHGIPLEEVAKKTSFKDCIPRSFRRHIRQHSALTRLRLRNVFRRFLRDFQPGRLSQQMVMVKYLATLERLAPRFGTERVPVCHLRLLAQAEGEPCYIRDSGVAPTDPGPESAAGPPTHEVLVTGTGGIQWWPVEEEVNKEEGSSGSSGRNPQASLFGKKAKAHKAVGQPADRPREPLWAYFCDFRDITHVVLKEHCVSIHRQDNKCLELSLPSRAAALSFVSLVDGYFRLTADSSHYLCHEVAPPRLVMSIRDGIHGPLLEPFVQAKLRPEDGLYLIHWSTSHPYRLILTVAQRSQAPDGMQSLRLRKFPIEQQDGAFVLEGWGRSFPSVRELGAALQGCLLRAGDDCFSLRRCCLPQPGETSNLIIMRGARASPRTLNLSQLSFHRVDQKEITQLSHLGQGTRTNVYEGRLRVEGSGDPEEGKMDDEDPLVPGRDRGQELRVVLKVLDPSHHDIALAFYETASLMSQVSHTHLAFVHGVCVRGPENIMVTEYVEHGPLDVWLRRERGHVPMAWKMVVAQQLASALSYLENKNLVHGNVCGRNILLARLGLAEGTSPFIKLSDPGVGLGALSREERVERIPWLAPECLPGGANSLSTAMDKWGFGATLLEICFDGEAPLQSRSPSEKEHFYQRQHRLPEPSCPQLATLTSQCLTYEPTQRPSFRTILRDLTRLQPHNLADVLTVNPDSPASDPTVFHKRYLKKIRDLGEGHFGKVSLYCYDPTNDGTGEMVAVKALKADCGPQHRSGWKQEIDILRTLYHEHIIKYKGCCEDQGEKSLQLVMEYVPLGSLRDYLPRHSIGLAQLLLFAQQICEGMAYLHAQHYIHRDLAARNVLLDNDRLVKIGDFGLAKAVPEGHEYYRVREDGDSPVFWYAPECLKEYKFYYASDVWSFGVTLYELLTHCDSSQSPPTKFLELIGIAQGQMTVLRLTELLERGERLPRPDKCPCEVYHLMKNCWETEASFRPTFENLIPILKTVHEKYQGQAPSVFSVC
In this section we review reported IC50 values for a set of compounds.
observed property: IC50

COc1ccccc1-n1[nH]c(=O)c2cnc(NC(=O)C3CC3)cc21
10 to 30 µM
O=c1[nH]n(-c2cccc(F)c2)c2cc(Nc3ccc(F)cn3)ncc12
> 90 µM
COc1cccc(-n2[nH]c(=O)c3cnc(Nc4cc(C)nc(C)n4)cc32)c1F
< 10 µM

----------
molecular target: TYK2 (Homo sapiens, UniProt P29597); assay: HEK-Blue IL-23 reporter assay (SEAP) for TYK2 pseudokinase inhibition; format: cell-based; parameters: HEK-Blue™ IL-23 and IFNα/β cells with a stably-integrated cytokine receptor and STAT3 or STAT1; host or cells: HEK-Blue IL-23 / HEK-Blue IFNα/β cells (HEK293 background); conditions: HEK-Blue IL-23 cells, 10 ng/mL human recombinant IL-23, SEAP reporter; read-out: IL23 IC50
Let's look at some compounds and their measured IC50.
observed property: IC50

O=C(Nc1cc2c(cn1)c(=O)[nH]n2-c1ccccc1)C1CC1
< 10 µM
N#Cc1ccc(-n2[nH]c(=O)c3cnc(Nc4ccc(F)cn4)cc32)cc1C(F)(F)F
< 10 µM
Cc1nc(Nc2cc3c(cn2)c(=O)[nH]n3-c2ccccc2)cc(OC(C)C)n1
< 10 µM

----------
target: UniProt P29597; experiment: HEK-Blue IL-23 reporter assay (SEAP) for TYK2 pseudokinase inhibition; format: cell-based; set-up: HEK-Blue™ IL-23 and IFNα/β cells with a stably-integrated cytokine receptor and STAT3 or STAT1; host or cells: HEK-Blue IL-23 / HEK-Blue IFNα/β cells (HEK293 background); settings: HEK-Blue IL-23 cells, 10 ng/mL human recombinant IL-23, SEAP reporter; read-out: IL23 IC50
observed property: IC50

COc1cccc(-n2[nH]c(=O)c3cnc(NC(=O)C4(O)CC4)cc32)c1 [Compound I-124]
< 10 µM
Cc1cc(Nc2cc3c(cn2)c(=O)[nH]n3-c2cccnc2)nc(C)n1 [Compound I-30]
< 10 µM
Cc1cc(Nc2cc3c(cn2)c(=O)[nH]n3-c2ccc(OC(F)(F)F)cc2)nc(C)n1 [Compound I-69]
< 10 µM
O=C(Nc1cc2c(cn1)c(=O)[nH]n2-c1cccc(F)c1)C1CC1 [Compound I-61]
< 10 µM
Cc1cc(Nc2cc3c(cn2)c(=O)[nH]n3-c2cccc(S(C)(=O)=O)c2)nc(C)n1 [Compound I-27]
> 90 µM
O=C(Nc1cc2c(cn1)c(=O)[nH]n2-c1cccc(OC(F)(F)F)c1)C1CC1 [Compound I-55]
< 10 µM
COc1cc(-n2[nH]c(=O)c3cnc(Nc4ccc(F)cn4)cc32)ccc1F [Compound I-77]
< 10 µM
Cc1cc(Nc2cc3c(cn2)c(=O)[nH]n3-c2cccc(F)c2)nc(C)n1 [Compound I-59]
< 10 µM
COc1cccc(-n2[nH]c(=O)c3cnc(Nc4ccc(C(F)(F)F)cn4)cc32)c1 [Compound I-42]
< 10 µM
COc1cccc(-n2[nH]c(=O)c3cnc(Nc4cc(OC)ncn4)cc32)c1 [Compound I-46]
< 10 µM
N#Cc1ccc(-n2[nH]c(=O)c3cnc(Nc4ccc(F)cn4)cc32)cc1 [Compound I-64]
< 10 µM
COc1cc(-n2[nH]c(=O)c3cnc(Nc4cc(C)nc(C)n4)cc32)ccn1 [Compound I-83]
< 10 µM
O=C(Nc1cc2c(cn1)c(=O)[nH]n2-c1ccccc1)c1ccccn1 [Compound I-9]
> 90 µM
COc1cccc(-n2[nH]c(=O)c3cnc(Nc4cc(C)nc(C)n4)cc32)n1 [Compound I-33]
< 10 µM
Cc1cc(Nc2cc3c(cn2)c(=O)[nH]n3-c2cccc(C(N)=O)c2)nc(C)n1 [Compound I-21]
> 90 µM
O=C(Nc1cc2c(cn1)c(=O)[nH]n2-c1ccccc1)c1cccnc1 [Compound I-10]
> 90 µM
COc1cccc(-n2[nH]c(=O)c3cnc(Nc4ccc(F)cn4)cc32)n1 [Compound I-36]
< 10 µM
COc1cccc(-n2[nH]c(=O)c3cnc(Nc4cc(C)ncn4)cc32)c1 [Compound I-47]
> 90 µM
Cc1cc(Nc2cc3c(cn2)c(=O)[nH]n3-c2cccc(F)c2F)nc(C)n1 [Compound I-113]
< 10 µM
Cc1cc(Nc2cc3c(cn2)c(=O)[nH]n3-c2ccc3cn(C)nc3c2)nc(C)n1 [Compound I-121]
< 10 µM
COc1cc(-n2[nH]c(=O)c3cnc(Nc4ccc(F)cn4)cc32)ccn1 [Compound I-84]
< 10 µM
O=c1[nH]n(-c2ccccc2)c2cc(Nc3ccc(F)cn3)ncc12 [Compound I-2]
< 10 µM
COc1c(-n2[nH]c(=O)c3cnc(Nc4cc(C)nc(C)n4)cc32)cccc1C(F)(F)F [Compound I-103]
> 90 µM
Cc1ccccc1-n1[nH]c(=O)c2cnc(Nc3ccc(F)cn3)cc21 [Compound I-106]
< 10 µM
Cc1cc(Nc2cc3c(cn2)c(=O)[nH]n3-c2ccccc2)ncc1F [Compound I-6]
< 10 µM
O=C(Nc1cc2c(cn1)c(=O)[nH]n2-c1cc(Cl)cc(Cl)c1)C1CC1 [Compound I-98]
< 10 µM
Cc1cc(Nc2cc3c(cn2)c(=O)[nH]n3-c2cc(Cl)cc(Cl)c2)nc(C)n1 [Compound I-96]
< 10 µM
O=c1[nH]n(-c2cccc(OC(F)(F)F)c2)c2cc(Nc3ccc(F)cn3)ncc12 [Compound I-56]
< 10 µM
O=C(Nc1cc2c(cn1)c(=O)[nH]n2-c1ccc(C(F)(F)F)cc1)C1CC1 [Compound I-68]
< 10 µM
Cn1cc2ccc(-n3[nH]c(=O)c4cnc(Nc5ccc(F)cn5)cc43)cc2n1 [Compound I-122]
< 10 µM
COc1ccc(Nc2cc3c(cn2)c(=O)[nH]n3-c2cccc(OC)c2)nc1 [Compound I-41]
< 10 µM
Cc1cc(Nc2cc3c(cn2)c(=O)[nH]n3-c2ccc(C#N)cc2)nc(C)n1 [Compound I-63]
< 10 µM
CCc1ccccc1-n1[nH]c(=O)c2cnc(Nc3ccc(F)cn3)cc21 [Compound I-109]
> 90 µM

----------
molecular target: TYK2 (Homo sapiens); assay: HEK-Blue IFNα/β reporter assay (SEAP) for TYK2 pseudokinase inhibition; type: cell-based; conditions: HEK-Blue IFNα/β cells, 1 ng/mL human recombinant IFNα
observed property: IC50

Cc1cc(Nc2cc3c(cn2)c(=O)[nH]n3-c2ccc(C#N)c(F)c2)nc(C)n1
< 10 µM
Cc1cc(Nc2cc3c(cn2)c(=O)[nH]n3-c2cccc(C(F)(F)F)c2)ncc1F
< 10 µM
COc1cccc(-n2[nH]c(=O)c3cnc(Nc4ccc(F)cn4)cc32)n1
< 10 µM
Cc1cc(Nc2cc3c(cn2)c(=O)[nH]n3-c2ccc(OC(F)(F)F)cc2)nc(C)n1
< 10 µM
COc1cccc(-n2[nH]c(=O)c3cnc(Nc4ccc(C#N)cn4)cc32)c1
< 10 µM
CCc1ccccc1-n1[nH]c(=O)c2cnc(Nc3ccc(F)cn3)cc21
> 90 µM
